test system: Escherichia coli TOP10; experiment: shrunken log2 fold change of peptide-encoding DNA abundance (4.5 h post-induction vs induction); higher = less antimicrobial activity (less host growth inhibition); settings: time post-induction: 4.5 h; library: site-saturation at positions 5, 18, 19, 20
MEASURED PARAMETER: shrunken log2 fold change
Give only the figure.

Tell me the measured shrunken log2 fold change of RRIRRRPPRLPRPRPRPAGMPRP , please.
0.102

Same question, RRIRVRPPRLPRPRPRPLSKPRP this time
-0.303

Same question, RRIRSRPPRLPRPRPRPSFNPRP this time
-0.644

Same question, RRIRYRPPRLPRPRPRPHSMPRP this time
-0.0542

Same question, RRIRVRPPRLPRPRPRPYWHPRP this time
-0.636

Same question, RRIRVRPPRLPRPRPRPWKGPRP this time
0.103

Same question, RRIRHRPPRLPRPRPRPTAEPRP this time
0.056

----------
system: Escherichia coli TOP10; experiment: shrunken log2 fold change of peptide-encoding DNA abundance (4.5 h post-induction vs induction); higher = less antimicrobial activity (less host growth inhibition); conditions: time post-induction: 4.5 h; library: site-saturation at positions 5, 18, 19, 20
MEASURED PARAMETER: shrunken log2 fold change
Give only the figure.

For the record RRIRQRPPRLPRPRPRPCCKPRP , what value of shrunken log2 fold change is listed for Escherichia coli TOP10?
-0.00783

Same question, RRIRPRPPRLPRPRPRPYQGPRP this time
-0.0345

Same question, RRIRERPPRLPRPRPRPHEIPRP this time
-0.0168

Same question, RRIRTRPPRLPRPRPRPFPTPRP this time
0.105

Same question, RRIRKRPPRLPRPRPRPRHDPRP this time
0.254

Same question, RRIRLRPPRLPRPRPRPEIIPRP this time
0.179

Same question, RRIRYRPPRLPRPRPRPFHTPRP this time
-0.128

Same question, RRIRGRPPRLPRPRPRPCTSPRP this time
0.188

Same question, RRIRPRPPRLPRPRPRPAAKPRP this time
0.435

Same question, RRIRGRPPRLPRPRPRPDKGPRP this time
0.00725

Same question, RRIRTRPPRLPRPRPRPQNAPRP this time
-0.12

Same question, RRIRCRPPRLPRPRPRPREAPRP this time
0.521

Same question, RRIRERPPRLPRPRPRPNNAPRP this time
-0.162

Same question, RRIRWRPPRLPRPRPRPGASPRP this time
0.793

Same question, RRIRFRPPRLPRPRPRPCWAPRP this time
0.105

Same question, RRIRQRPPRLPRPRPRPKDKPRP this time
-0.386

Same question, RRIRGRPPRLPRPRPRPKLAPRP this time
1.67

Same question, RRIRPRPPRLPRPRPRPASRPRP this time
0.0846

Same question, RRIRCRPPRLPRPRPRPWTMPRP this time
0.0153

Same question, RRIRVRPPRLPRPRPRPVMCPRP this time
-0.0631

Same question, RRIRNRPPRLPRPRPRPTRKPRP this time
0.623

Same question, RRIRCRPPRLPRPRPRPTPTPRP this time
0.982

Same question, RRIRYRPPRLPRPRPRPVHSPRP this time
-0.155

Same question, RRIRKRPPRLPRPRPRPTYVPRP this time
-0.201

Same question, RRIRLRPPRLPRPRPRPKWSPRP this time
-0.171

Same question, RRIRYRPPRLPRPRPRPCFQPRP this time
-0.267

Same question, RRIRNRPPRLPRPRPRPMYHPRP this time
-0.248

Same question, RRIRYRPPRLPRPRPRPIAWPRP this time
-0.0381

Same question, RRIRLRPPRLPRPRPRPGKPPRP this time
-0.0724

Same question, RRIRRRPPRLPRPRPRPEYGPRP this time
-0.0277

Same question, RRIRIRPPRLPRPRPRPWRKPRP this time
-0.143

Same question, RRIRVRPPRLPRPRPRPVLIPRP this time
-0.186

Same question, RRIRYRPPRLPRPRPRPMRYPRP this time
-0.114

Same question, RRIRQRPPRLPRPRPRPCSTPRP this time
0.0062

----------
Would you kindly list shrunken log2 fold change for each of these sequences?
test system: Escherichia coli TOP10; assay: shrunken log2 fold change of peptide-encoding DNA abundance (4.5 h post-induction vs induction); higher = less antimicrobial activity (less host growth inhibition); settings: time post-induction: 4.5 h; library: site-saturation at positions 5, 18, 19, 20

Tell me the measured shrunken log2 fold change of RRIRNRPPRLPRPRPRPKHLPRP , please.
-0.403

Same question, RRIRSRPPRLPRPRPRPGPWPRP this time
-0.0683

Same question, RRIRLRPPRLPRPRPRPDGIPRP this time
-0.0391

Same question, RRIRWRPPRLPRPRPRPSPNPRP this time
0.106

Same question, RRIRGRPPRLPRPRPRPGDMPRP this time
0.511

Same question, RRIRDRPPRLPRPRPRPPQHPRP this time
0.171

Same question, RRIRWRPPRLPRPRPRPEFAPRP this time
1.02

Same question, RRIRDRPPRLPRPRPRPPRTPRP this time
0.389

Same question, RRIRMRPPRLPRPRPRPDPIPRP this time
-0.249

Same question, RRIRIRPPRLPRPRPRPMVEPRP this time
3.19

Same question, RRIRWRPPRLPRPRPRPVCHPRP this time
0.0811

Same question, RRIRMRPPRLPRPRPRPPRSPRP this time
1.6

Same question, RRIRVRPPRLPRPRPRPFSHPRP this time
-0.358

Same question, RRIRQRPPRLPRPRPRPKDRPRP this time
-0.115

Same question, RRIRGRPPRLPRPRPRPWKPPRP this time
0.0444

Same question, RRIRFRPPRLPRPRPRPLVKPRP this time
-0.143

Same question, RRIRFRPPRLPRPRPRPDDSPRP this time
-0.154

Same question, RRIRSRPPRLPRPRPRPTGEPRP this time
0.0361

Same question, RRIRLRPPRLPRPRPRPCMHPRP this time
-0.0286

Same question, RRIRMRPPRLPRPRPRPNRFPRP this time
-0.0257

Same question, RRIRCRPPRLPRPRPRPDHLPRP this time
-0.0314

Same question, RRIRFRPPRLPRPRPRPVCKPRP this time
-0.139

Same question, RRIRARPPRLPRPRPRPGCHPRP this time
0.265

Same question, RRIRHRPPRLPRPRPRPGYKPRP this time
-0.00663

Same question, RRIRTRPPRLPRPRPRPVPDPRP this time
-0.0687

Same question, RRIRVRPPRLPRPRPRPGMFPRP this time
-0.132

Same question, RRIRARPPRLPRPRPRPWKSPRP this time
-0.00111

Same question, RRIRIRPPRLPRPRPRPGCMPRP this time
-0.134

Same question, RRIRCRPPRLPRPRPRPFVIPRP this time
-0.526

Same question, RRIRPRPPRLPRPRPRPIWEPRP this time
0.0926

Same question, RRIRPRPPRLPRPRPRPLEWPRP this time
-0.00787

Same question, RRIRGRPPRLPRPRPRPWQLPRP this time
0.372

Same question, RRIRSRPPRLPRPRPRPSFLPRP this time
0.182

Same question, RRIRNRPPRLPRPRPRPFTYPRP this time
-0.0143

Same question, RRIRIRPPRLPRPRPRPKRIPRP this time
0.0468

----------
Would you kindly list shrunken log2 fold change for each of these sequences?
tested on: Escherichia coli TOP10; assay: shrunken log2 fold change of peptide-encoding DNA abundance (4.5 h post-induction vs induction); higher = less antimicrobial activity (less host growth inhibition); conditions: time post-induction: 4.5 h; library: site-saturation at positions 5, 18, 19, 20;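 further: peptides expressed intracellularly from a pBAD plasmid library in pooled LB shake-flask culture, induced with 0.3% L-arabinose, DNA abundance read by NGS, three biological replicates, DESeq2 with apeglm shrinkage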
Give only the figure.

Tell me the measured shrunken log2 fold change of RRIRARPPRLPRPRPRPFCPPRP , please.
0.11

Same question, RRIRKRPPRLPRPRPRPVFPPRP this time
0.0527

Same question, RRIRIRPPRLPRPRPRPGFCPRP this time
0.135

Same question, RRIRCRPPRLPRPRPRPNASPRP this time
0.0178

Same question, RRIRTRPPRLPRPRPRPLYKPRP this time
-0.274

Same question, RRIRWRPPRLPRPRPRPDRFPRP this time
0.0986

Same question, RRIRIRPPRLPRPRPRPQRCPRP this time
-0.0109

Same question, RRIRERPPRLPRPRPRPIFYPRP this time
-0.385

Same question, RRIRIRPPRLPRPRPRPFGDPRP this time
-0.0112

Same question, RRIRHRPPRLPRPRPRPCRCPRP this time
-0.271

Same question, RRIRIRPPRLPRPRPRPDWPPRP this time
0.0262

Same question, RRIRIRPPRLPRPRPRPYLEPRP this time
-0.849

Same question, RRIRHRPPRLPRPRPRPICYPRP this time
-0.178

Same question, RRIRHRPPRLPRPRPRPVDSPRP this time
-0.175

Same question, RRIRQRPPRLPRPRPRPEIMPRP this time
0.103

Same question, RRIRGRPPRLPRPRPRPWDTPRP this time
0.194

Same question, RRIRLRPPRLPRPRPRPDVQPRP this time
0.0463

Same question, RRIRDRPPRLPRPRPRPQWQPRP this time
-0.0558

Same question, RRIRRRPPRLPRPRPRPKWEPRP this time
0.364

Same question, RRIRIRPPRLPRPRPRPGTSPRP this time
-0.0281

Same question, RRIRWRPPRLPRPRPRPLCFPRP this time
-0.101

Same question, RRIRTRPPRLPRPRPRPLAKPRP this time
0.0419

Same question, RRIRTRPPRLPRPRPRPENLPRP this time
-0.0254

Same question, RRIRARPPRLPRPRPRPWTMPRP this time
-0.0418

Same question, RRIRRRPPRLPRPRPRPFHVPRP this time
-0.00804
